Target: gp130 binding to immobilized OSM (Homo sapiens)
Sequence (P13725 26-212 limits assumed): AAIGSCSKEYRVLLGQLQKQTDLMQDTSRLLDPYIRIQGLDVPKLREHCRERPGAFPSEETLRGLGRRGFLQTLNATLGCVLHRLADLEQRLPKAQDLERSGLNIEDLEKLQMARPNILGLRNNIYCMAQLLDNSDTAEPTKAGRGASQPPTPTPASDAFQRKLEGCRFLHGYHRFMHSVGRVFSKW
pIC50: −log10 of the molar value.
QUANTITY NAME: pIC50

Dear colleague, please send me the reported pIC50 for O=C(O)/C=C/c1cc(-c2ccc3cc[nH]c3c2)c(-c2ccc3cc[nH]c3c2)o1 when you can.
4.00 to 4.52
